- Tested on: Baf3-WT
- experimental_details: Cellular assay (Alamar Blue), Baf3-WT with mouse IL-3
- Type: cell-based
- condition_label: mouse IL-3 at 5 ng/ml, 72 hr
pIC50: −log10 of the molar value.
measurement_type: pIC50

COc1cccc(-c2cncc(N[C@@H](C)c3cccc(NC(=O)c4cncc(C)c4)c3)n2)c1 | < 5.00
C[C@H](Nc1cncc(-c2cccc(S(N)(=O)=O)c2)n1)c1cccc(NC(=O)c2cccc(C(F)(F)F)c2)c1 | > 5.00
C[C@H](Nc1cncc(-c2cccc(CO)c2)n1)c1cccc(NC(=O)c2cccc(C(F)(F)F)c2)c1 | > 5.00
COc1cccc(-c2cncc(N[C@@H](C)c3cccc(NC(=O)c4cccc(C)c4)c3)n2)c1 | < 5.00
Cc1cccc(C(=O)Nc2cccc([C@H](C)Nc3cncc(-c4ccc(N5CCN(C)CC5)cc4)n3)c2)c1 | > 5.00

Input line: Look up pIC50: Cc1cccc(C(=O)Nc2cccc([C@H](C)Nc3cncc(-c4cccc(N5CCOCC5)c4)n3)c2)c1
Output line: < 5.00

Input line: Look up pIC50: Cc1ccc(F)c(C(=O)Nc2cccc([C@H](C)Nc3cncc(-c4cccc(N5CCOCC5)c4)n3)c2)c1
Output line: < 5.00

* * *

- assay_target: FLT-3 tyrosine kinase (Homo sapiens)
- Sequence (P36888 27-993): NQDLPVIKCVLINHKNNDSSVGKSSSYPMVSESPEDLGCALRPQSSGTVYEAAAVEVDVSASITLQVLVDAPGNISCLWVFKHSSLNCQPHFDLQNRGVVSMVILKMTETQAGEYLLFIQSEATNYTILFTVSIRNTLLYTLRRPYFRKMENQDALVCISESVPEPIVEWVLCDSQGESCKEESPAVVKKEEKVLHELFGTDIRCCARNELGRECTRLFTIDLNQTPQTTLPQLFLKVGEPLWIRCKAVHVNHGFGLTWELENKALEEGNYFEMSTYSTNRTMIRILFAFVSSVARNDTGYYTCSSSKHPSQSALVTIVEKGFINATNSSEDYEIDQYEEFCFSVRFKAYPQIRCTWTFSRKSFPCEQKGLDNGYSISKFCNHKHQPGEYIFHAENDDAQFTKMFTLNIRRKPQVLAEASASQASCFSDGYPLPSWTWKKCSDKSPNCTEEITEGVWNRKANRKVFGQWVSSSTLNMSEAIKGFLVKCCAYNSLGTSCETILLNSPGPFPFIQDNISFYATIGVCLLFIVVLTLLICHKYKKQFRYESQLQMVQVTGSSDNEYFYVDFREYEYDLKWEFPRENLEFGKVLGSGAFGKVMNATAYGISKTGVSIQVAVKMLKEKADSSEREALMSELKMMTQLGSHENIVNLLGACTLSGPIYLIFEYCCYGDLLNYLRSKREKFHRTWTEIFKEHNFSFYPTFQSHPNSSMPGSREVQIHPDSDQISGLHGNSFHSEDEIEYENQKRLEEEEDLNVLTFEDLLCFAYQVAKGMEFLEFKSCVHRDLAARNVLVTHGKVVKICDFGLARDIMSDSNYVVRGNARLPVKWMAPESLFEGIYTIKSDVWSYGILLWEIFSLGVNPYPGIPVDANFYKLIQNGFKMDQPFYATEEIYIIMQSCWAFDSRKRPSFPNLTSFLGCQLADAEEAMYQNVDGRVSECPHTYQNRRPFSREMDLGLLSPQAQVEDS
Known IC50 of a selection of molecules

See these solved cases before continuing.
Cc1cccc(C(=O)Nc2cccc([C@H](C)Nc3cncc(-c4ccc(S(N)(=O)=O)cc4)n3)c2)c1 | > 10 µM
COc1cc(-c2cncc(N[C@@H](C)c3cccc(NC(=O)c4cncc(C)c4)c3)n2)ccc1N | < 10 µM
COc1cc(-c2cncc(NC(C)c3cccc(NC(=O)c4cccnc4)c3)n2)ccc1O (stereo not shown) | > 10 µM

Now turn to the next molecule.
Input line: API: value(readout= IC50, system= FLT-3 tyrosine kinase (Homo sapiens), query= COc1cc(-c2cncc(N[C@@H](C)c3cccc(NC(=O)c4ccc(C)nc4)c3)n2)ccc1N )
Output line: < 10 µM

* * *

- assay_target: EphA2(h) (Homo sapiens)
- Construct: purchased Upstate Biotechnology (Dundee, UK), KinaseProfiler service
- Sequence (P29317 24-976): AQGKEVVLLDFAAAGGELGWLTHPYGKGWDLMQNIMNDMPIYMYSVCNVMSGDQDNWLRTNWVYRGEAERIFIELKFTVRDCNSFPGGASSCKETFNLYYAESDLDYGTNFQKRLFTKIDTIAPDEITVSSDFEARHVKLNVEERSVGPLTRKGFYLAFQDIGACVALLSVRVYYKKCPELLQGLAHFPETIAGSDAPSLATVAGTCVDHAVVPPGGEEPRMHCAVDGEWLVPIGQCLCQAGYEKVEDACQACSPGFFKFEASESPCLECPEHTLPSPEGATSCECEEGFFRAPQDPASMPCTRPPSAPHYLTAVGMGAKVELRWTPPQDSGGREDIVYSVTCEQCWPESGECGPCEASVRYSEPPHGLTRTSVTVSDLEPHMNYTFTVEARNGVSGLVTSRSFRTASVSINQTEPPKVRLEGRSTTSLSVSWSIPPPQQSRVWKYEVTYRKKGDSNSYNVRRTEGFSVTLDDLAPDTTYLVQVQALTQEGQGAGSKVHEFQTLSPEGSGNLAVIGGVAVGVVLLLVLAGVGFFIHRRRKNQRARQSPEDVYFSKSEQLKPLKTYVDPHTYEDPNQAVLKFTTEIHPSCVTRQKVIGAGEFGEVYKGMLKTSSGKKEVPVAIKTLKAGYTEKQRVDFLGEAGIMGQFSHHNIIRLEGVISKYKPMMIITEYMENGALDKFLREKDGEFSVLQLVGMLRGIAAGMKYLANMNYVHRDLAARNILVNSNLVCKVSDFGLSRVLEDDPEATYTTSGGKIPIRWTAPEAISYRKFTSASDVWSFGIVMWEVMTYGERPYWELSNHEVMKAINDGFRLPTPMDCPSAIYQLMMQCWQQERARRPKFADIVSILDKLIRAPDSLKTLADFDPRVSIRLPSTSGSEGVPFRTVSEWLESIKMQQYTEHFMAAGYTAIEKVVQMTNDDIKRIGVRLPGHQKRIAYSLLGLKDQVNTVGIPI
- experimental_details: KinaseProfiler assay (Upstate), EphA2
- Format: biochemical
- condition_label: 0.1 μM
measurement_type: inhibition at 0.1 µM (%)

Cc1cccc(C(=O)Nc2cccc([C@H](C)Nc3cncc(-n4ccnc4)n3)c2)c1 | 80
Cc1cccc(C(=O)Nc2cccc([C@H](C)Nc3cncc(C(N)=O)n3)c2)c1 | 69
Cc1cccc(C(=O)Nc2cccc([C@H](C)Nc3cncc(-c4ccc(S(N)(=O)=O)cc4)n3)c2)c1 | 87

I: Cc1cccc(C(=O)Nc2ccc(C)c([C@H](C)Nc3cncc(Cl)n3)c2)c1
II: Cc1cccc(C(=O)Nc2cccc([C@H](C)Nc3cncc(-c4ccc(N5CCN(C)CC5)cc4)n3)c2)c1
Input line: So which one has the bigger inhibition at 0.1 µM here, I or II ? Give the label under which the chosen entry appears.
Output line: I

* * *

- assay_target: EphA2(h) (Homo sapiens)
- Construct: purchased Upstate Biotechnology (Dundee, UK), KinaseProfiler service
- experimental_details: KinaseProfiler assay (Upstate), EphA2
- Format: biochemical
- condition_label: 1 μM
measurement_type: inhibition at 1 µM (%)

Cc1cccc(C(=O)Nc2cccc([C@H](C)Nc3cncc(-n4ccnc4)n3)c2)c1 | 99
C[C@H](Nc1cncc(Cl)n1)c1cccc(NC(=O)c2cccc(C(F)(F)F)c2)c1 | 101
Cc1cccc(C(=O)Nc2cccc([C@H](C)Nc3cncc(C(N)=O)n3)c2)c1 | 99
Cc1cccc(C(=O)Nc2cccc([C@H](C)Nc3cncc(-c4cccc(N5CCOCC5)c4)n3)c2)c1 | 102
Cc1cccc(C(=O)Nc2ccc(C)c([C@H](C)Nc3cncc(Cl)n3)c2)c1 | 103
C[C@H](Nc1cncc(-c2cccc(N3CCOCC3)c2)n1)c1cccc(NC(=O)c2cccc(C(F)(F)F)c2)c1 | 102
C[C@H](Nc1cncc(-c2ccc(N3CCN(C)CC3)cc2)n1)c1cccc(NC(=O)c2cccc(C(F)(F)F)c2)c1 | 102
Cc1cccc(C(=O)Nc2cccc([C@H](C)Nc3cncc(-c4ccc(S(N)(=O)=O)cc4)n3)c2)c1 | 102
Cc1cccc(C(=O)Nc2cccc([C@H](C)Nc3cncc(-c4ccc(N5CCN(C)CC5)cc4)n3)c2)c1 | 93

* * *

- assay_target: cSRC(h) (Homo sapiens)
- Construct: purchased Upstate Biotechnology (Dundee, UK), KinaseProfiler service
- experimental_details: KinaseProfiler assay (Upstate), cSRC
- Format: biochemical
- condition_label: 0.1 μM
measurement_type: inhibition at 0.1 µM (%)

See these solved cases before continuing.
Cc1cccc(C(=O)Nc2ccc(C)c([C@H](C)Nc3cncc(Cl)n3)c2)c1 | 53
Cc1cccc(C(=O)Nc2cccc([C@H](C)Nc3cncc(-c4ccc(S(N)(=O)=O)cc4)n3)c2)c1 | 23

a: C[C@H](Nc1cncc(Cl)n1)c1cccc(NC(=O)c2cccc(C(F)(F)F)c2)c1
b: Cc1cccc(C(=O)Nc2cccc([C@H](C)Nc3cncc(-c4cccc(N5CCOCC5)c4)n3)c2)c1
c: C[C@H](Nc1cncc(-c2cccc(N3CCOCC3)c2)n1)c1cccc(NC(=O)c2cccc(C(F)(F)F)c2)c1
d: Cc1cccc(C(=O)Nc2cccc([C@H](C)Nc3cncc(C(N)=O)n3)c2)c1
e: Cc1cccc(C(=O)Nc2cccc([C@H](C)Nc3cncc(-n4ccnc4)n3)c2)c1
Input line: Hey, can you sort those compounds up there by inhibition at 0.1 µM, smallest first? Returns: the labels listed in the requested order.
Output line: d, e, a, b, c
(d: 1%, e: 14%, a: 24%, b: 45%, c: 69%)

A: Cc1cccc(C(=O)Nc2cccc([C@H](C)Nc3cncc(-c4ccc(N5CCN(C)CC5)cc4)n3)c2)c1
B: C[C@H](Nc1cncc(-c2ccc(N3CCN(C)CC3)cc2)n1)c1cccc(NC(=O)c2cccc(C(F)(F)F)c2)c1
Input line: So which one has the bigger inhibition at 0.1 µM here, A or B ? Give the label under which the chosen entry appears.
Output line: B
(B: 86%, A: 38%)

* * *

- assay_target: cSRC(h) (Homo sapiens, UniProt P12931)
- Construct: purchased Upstate Biotechnology (Dundee, UK), KinaseProfiler service
- Sequence (P12931 whole entry): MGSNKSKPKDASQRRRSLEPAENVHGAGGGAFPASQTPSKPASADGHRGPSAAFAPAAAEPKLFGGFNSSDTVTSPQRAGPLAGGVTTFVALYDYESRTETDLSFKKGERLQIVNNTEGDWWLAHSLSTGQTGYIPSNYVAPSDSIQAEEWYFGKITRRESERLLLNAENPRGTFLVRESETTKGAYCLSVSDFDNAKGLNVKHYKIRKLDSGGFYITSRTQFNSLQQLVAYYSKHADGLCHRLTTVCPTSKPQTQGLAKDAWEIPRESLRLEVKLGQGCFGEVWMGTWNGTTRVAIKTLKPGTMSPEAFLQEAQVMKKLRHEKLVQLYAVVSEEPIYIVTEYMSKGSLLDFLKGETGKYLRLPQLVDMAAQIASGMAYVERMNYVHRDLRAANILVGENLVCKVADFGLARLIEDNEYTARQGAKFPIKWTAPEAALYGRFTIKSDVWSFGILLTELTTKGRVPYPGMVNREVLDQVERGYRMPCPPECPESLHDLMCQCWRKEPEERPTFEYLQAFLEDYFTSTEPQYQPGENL
- experimental_details: KinaseProfiler assay (Upstate), cSRC
- Assay type: biochemical
- condition_label: 1 μM
- Experimental: Further enzyme assays were conducted at Upstate Biotechnology (Dundee, UK) in the KinaseProfiler™ Assay system. The general protocol is as follows. All kinases are pre-diluted to a 10× working concentration prior to addition into the assay. The composition of the dilution buffer for the kinases is 20 mM MOPS pH 7.0, 1 mM EDTA, 0.1% β-mercaptoethanol, 0.01% Brij-35, 5% glycerol, 1 mg/ml BSA. All substrates are dissolved and diluted to working stocks in de-ionised water.
measurement_type: inhibition at 1 µM (%)

See these solved cases before continuing.
Cc1cccc(C(=O)Nc2cccc([C@H](C)Nc3cncc(-c4ccc(S(N)(=O)=O)cc4)n3)c2)c1 [Compound 77] | 74
Cc1cccc(C(=O)Nc2cccc([C@H](C)Nc3cncc(-c4cccc(N5CCOCC5)c4)n3)c2)c1 [Compound 147] | 87

A: Cc1cccc(C(=O)Nc2cccc([C@H](C)Nc3cncc(-c4ccc(N5CCN(C)CC5)cc4)n3)c2)c1 [Compound 129]
B: Cc1cccc(C(=O)Nc2cccc([C@H](C)Nc3cncc(C(N)=O)n3)c2)c1 [Compound 133]
Input line: Hello, I am sorting some records. Could you say if A or B has the smaller inhibition at 1 µM value? Give the label under which the chosen entry appears.
Output line: B

* * *

- assay_target: Lck(h) (Homo sapiens, UniProt P06239)
- Construct: purchased Upstate Biotechnology (Dundee, UK), KinaseProfiler service
- Sequence (P06239 whole entry): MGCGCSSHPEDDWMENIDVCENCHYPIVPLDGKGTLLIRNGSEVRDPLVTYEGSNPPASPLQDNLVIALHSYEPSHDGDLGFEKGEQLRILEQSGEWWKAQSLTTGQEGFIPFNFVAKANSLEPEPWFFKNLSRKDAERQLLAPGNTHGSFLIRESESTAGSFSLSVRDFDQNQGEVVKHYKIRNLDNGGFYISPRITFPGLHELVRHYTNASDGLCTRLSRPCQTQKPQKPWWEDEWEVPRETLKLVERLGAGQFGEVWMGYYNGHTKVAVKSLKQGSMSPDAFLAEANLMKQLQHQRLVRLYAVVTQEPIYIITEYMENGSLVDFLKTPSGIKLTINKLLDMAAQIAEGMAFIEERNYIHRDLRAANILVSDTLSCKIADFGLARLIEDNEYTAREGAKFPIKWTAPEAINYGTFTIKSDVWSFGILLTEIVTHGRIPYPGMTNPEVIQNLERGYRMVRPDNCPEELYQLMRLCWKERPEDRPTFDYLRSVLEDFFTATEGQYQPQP
- experimental_details: KinaseProfiler assay (Upstate), Lck
- Type: biochemical
- condition_label: 0.1 μM
measurement_type: inhibition at 0.1 µM (%)

Cc1cccc(C(=O)Nc2cccc([C@H](C)Nc3cncc(-n4ccnc4)n3)c2)c1 | 24
Cc1cccc(C(=O)Nc2cccc([C@H](C)Nc3cncc(-c4ccc(N5CCN(C)CC5)cc4)n3)c2)c1 | 73
Cc1cccc(C(=O)Nc2cccc([C@H](C)Nc3cncc(-c4cccc(N5CCOCC5)c4)n3)c2)c1 | 50
C[C@H](Nc1cncc(-c2ccc(N3CCN(C)CC3)cc2)n1)c1cccc(NC(=O)c2cccc(C(F)(F)F)c2)c1 | 95
Cc1cccc(C(=O)Nc2cccc([C@H](C)Nc3cncc(-c4ccc(S(N)(=O)=O)cc4)n3)c2)c1 | 45

I: C[C@H](Nc1cncc(Cl)n1)c1cccc(NC(=O)c2cccc(C(F)(F)F)c2)c1
II: Cc1cccc(C(=O)Nc2ccc(C)c([C@H](C)Nc3cncc(Cl)n3)c2)c1
Input line: So which one has the bigger inhibition at 0.1 µM here, I or II ? Give the label under which the chosen entry appears.
Output line: II

1: Cc1cccc(C(=O)Nc2cccc([C@H](C)Nc3cncc(C(N)=O)n3)c2)c1
2: C[C@H](Nc1cncc(-c2cccc(N3CCOCC3)c2)n1)c1cccc(NC(=O)c2cccc(C(F)(F)F)c2)c1
Input line: So which one has the bigger inhibition at 0.1 µM here, 1 or 2 ? Give the label under which the chosen entry appears.
Output line: 2
(2: 68%, 1: 0%)
